Test system: JM1
assay info: CellTiterGlo viability, DLBCL cell line
Type: cell-based
conditions used: single agent, 2 days, read-out: Abs IC50
quantity kind: IC50 (nM)
Quick note: give the figure in nM, leave out the unit.

Incoming: Which IC50 reading was recorded for the compound COc1ccccc1-c1nccc(COc2ccccc2C[C@@H](Oc2ncnc3sc(-c4ccc(F)cc4)c(-c4ccc(OCCN5CCN(C)CC5)c(Cl)c4C)c23)C(=O)O)n1 [Compound 3] ?
Outgoing: 58.8

---

System: SK-N-FI
assay info: CellTiterGlo viability, neuroblastoma cell line
Assay type: cell-based
conditions used: Homo sapiens, 48 h, single agent, 2 days
pIC50: −log10 of the molar value.
quantity kind: pIC50

Incoming: Name the reported pIC50 value associated with the molecule Cl.O=C(c1cc(-c2cc3c(cc2C(=O)N2Cc4ccccc4C[C@H]2CN2CCOCC2)OCO3)n2c1CCCC2)N(c1ccccc1)c1ccc(O)cc1 [Compound 1, HCl]
Outgoing: < 5.52

---

Tested on: XG1
assay info: MTT cell viability assay, myeloma cell line
Type: cell-based, human
conditions used: Homo sapiens, single agent, read-out: IC50
quantity kind: IC50 (µM)
Expressed in µM, but write only the number.

Incoming: Any idea what IC50 was measured for Cl.O=C(c1cc(-c2cc3c(cc2C(=O)N2Cc4ccccc4C[C@H]2CN2CCOCC2)OCO3)n2c1CCCC2)N(c1ccccc1)c1ccc(O)cc1 [Compound 1, HCl] ?
Outgoing: 9.78

---

System: Pfeiffer
assay info: CellTiterGlo viability, DLBCL cell line
Type: cell-based
conditions used: Homo sapiens, 48 h, single agent, 2 days, read-out: Abs IC50
quantity kind: pIC50
In textbook form, pIC50 equals minus log to base ten of the concentration in mol/L.

Incoming: Lab request: please report pIC50 under test system Pfeiffer for Cl.O=C(c1cc(-c2cc3c(cc2C(=O)N2Cc4ccccc4C[C@H]2CN2CCOCC2)OCO3)n2c1CCCC2)N(c1ccccc1)c1ccc(O)cc1 [Compound 1, HCl]
Outgoing: 5.35

---

System: BALL-1
assay info: CellTiterGlo viability, B-ALL cell line
Type: cell-based
conditions used: Homo sapiens, single agent, 72 h
quantity kind: IC50 (µM)
Number in µM, nothing else.

Incoming: Form field - read-out: IC50; system: BALL-1; submitted item: Cl.O=C(c1cc(-c2cc3c(cc2C(=O)N2Cc4ccccc4C[C@H]2CN2CCOCC2)OCO3)n2c1CCCC2)N(c1ccccc1)c1ccc(O)cc1 [Compound 1, HCl]
Outgoing: 0.019

---

Tested on: NAN8
assay info: MTT cell viability assay, myeloma cell line
Assay type: cell-based, human
conditions used: single agent, read-out: IC50
quantity kind: pIC50
Please treat pIC50 as minus the base-10 logarithm of the molar concentration.

Incoming: Requested read-out: pIC50. Entry: `Cc1c(-c2c(-c3ccc(F)o3)sc3ncnc(O[C@H](Cc4ccccc4OCc4ccnn4CC(F)(F)F)C(=O)O)c23)ccc(OCCN2CCN(C)CC2)c1Cl`
Outgoing: 7.12

---

Tested on: HT
assay info: CellTiterGlo viability, DLBCL cell line
Format: cell-based
conditions used: Homo sapiens, 48 h, single agent, 2 days, read-out: Abs IC50
quantity kind: IC50

Incoming: IC50 lookup needed for Cl.O=C(c1cc(-c2cc3c(cc2C(=O)N2Cc4ccccc4C[C@H]2CN2CCOCC2)OCO3)n2c1CCCC2)N(c1ccccc1)c1ccc(O)cc1 [Compound 1, HCl] , thanks.
Outgoing: ≥ 10 µM

---

Test system: Kelly
assay info: CellTiterGlo viability, neuroblastoma cell line
Type: cell-based
conditions used: 48 h, single agent, 2 days
pIC50: −log10 of the molar value.
quantity kind: pIC50

Incoming: What pIC50 appears in the records for this compound with Kelly? Cl.O=C(c1cc(-c2cc3c(cc2C(=O)N2Cc4ccccc4C[C@H]2CN2CCOCC2)OCO3)n2c1CCCC2)N(c1ccccc1)c1ccc(O)cc1 [Compound 1, HCl]
Outgoing: < 5.52

---

Test system: DND-41
assay info: CellTiterGlo viability, T-ALL cell line
Type: cell-based
conditions used: single agent, 72 h
quantity kind: IC50
Reply with the number, then its unit.

Incoming: Return reported IC50; argument: `COc1ccccc1-c1nccc(COc2ccccc2C[C@@H](Oc2ncnc3sc(-c4ccc(F)cc4)c(-c4ccc(OCCN5CCN(C)CC5)c(Cl)c4C)c23)C(=O)O)n1`
Outgoing: 7 µM

---

Tested on: NAN3
assay info: MTT cell viability assay, myeloma cell line
Type: cell-based, human
conditions used: Homo sapiens, single agent
quantity kind: IC50 (µM)
Express your answer in µM, writing the number without its unit.

Incoming: For the compound Cl.O=C(c1cc(-c2cc3c(cc2C(=O)N2Cc4ccccc4C[C@H]2CN2CCOCC2)OCO3)n2c1CCCC2)N(c1ccccc1)c1ccc(O)cc1 [Compound 1, HCl] , what IC50 is on record?
Outgoing: 8.24

---

Tested on: SUP-B15
assay info: CellTiterGlo viability, B-ALL cell line
Type: cell-based
conditions used: single agent, 72 h
quantity kind: pIC50
Note on units: pIC50 is unitless, being -log10 of a concentration expressed in mol/L.

Incoming: Given the entry `COc1ccccc1-c1nccc(COc2ccccc2C[C@@H](Oc2ncnc3sc(-c4ccc(F)cc4)c(-c4ccc(OCCN5CCN(C)CC5)c(Cl)c4C)c23)C(=O)O)n1` , report its measured pIC50.
Outgoing: 7.11

---

Tested on: DND-41
assay info: CellTiterGlo viability, T-ALL cell line
Format: cell-based
conditions used: DND41, single agent, 72 h
quantity kind: IC50 (µM)
Value expressed in µM; do not type the unit.

Incoming: Query for DND-41: what IC50 does the record show for Cl.O=C(c1cc(-c2cc3c(cc2C(=O)N2Cc4ccccc4C[C@H]2CN2CCOCC2)OCO3)n2c1CCCC2)N(c1ccccc1)c1ccc(O)cc1 [Compound 1, HCl] ?
Outgoing: 9

---

System: XG6
assay info: MTT cell viability assay, myeloma cell line
Format: cell-based, human
conditions used: Homo sapiens, single agent, read-out: IC50
Procedure: Cell lines: Human myeloma cell lines (HMCLs) were derived from primary myeloma cells cultured in RPMI 1640 medium supplemented with 5% fetal calf serum from and 3 ng/mL recombinant IL-6 for IL-6 dependent cell lines. HMCLs are representative of phenotypic and genomic heterogeneity and the variability in patient's response to therapy. MTT assay: Cell viability is measured using MTT (3-(4,5-dimethylthiazol-2-yl)-2,5-diphenyltetrazolium bromide) colorimetric survival assay. […]
quantity kind: pIC50
To interpret pIC50, take it as minus log10 of a concentration measured in moles per litre.

Incoming: Test system XG6; read-out pIC50; what value for Cl.O=C(c1cc(-c2cc3c(cc2C(=O)N2Cc4ccccc4C[C@H]2CN2CCOCC2)OCO3)n2c1CCCC2)N(c1ccccc1)c1ccc(O)cc1 [Compound 1, HCl] ?
Outgoing: 5.07

---

Test system: JJN3
assay info: MTT cell viability assay, myeloma cell line
Format: cell-based, human
conditions used: Homo sapiens, JJN-3, single agent, read-out: IC50
quantity kind: IC50 (nM)
Give the quantity in nM, number only.

Incoming: Notebook entry, JJN3 assay: IC50 of Cl.O=C(c1cc(-c2cc3c(cc2C(=O)N2Cc4ccccc4C[C@H]2CN2CCOCC2)OCO3)n2c1CCCC2)N(c1ccccc1)c1ccc(O)cc1 [Compound 1, HCl] = ?
Outgoing: 2690

---

Tested on: BCN
assay info: MTT cell viability assay, myeloma cell line
Assay type: cell-based, human
conditions used: Homo sapiens, single agent, read-out: IC50
quantity kind: pIC50
// field semantics: pIC50 = negative decimal log of concentration (mol/L)

Incoming: Using the record for Cl.O=C(c1cc(-c2cc3c(cc2C(=O)N2Cc4ccccc4C[C@H]2CN2CCOCC2)OCO3)n2c1CCCC2)N(c1ccccc1)c1ccc(O)cc1 [Compound 1, HCl] , report its pIC50.
Outgoing: 4.65

---

Test system: MV4;11
assay info: CellTiterGlo viability, AML cell line
Assay type: cell-based
conditions used: single agent, 3 days
quantity kind: IC50 (nM)
Express your answer in nM, writing the number without its unit.

Incoming: For the compound Cc1c(N(C(=O)c2cc(-c3cc(Cl)ccc3C(=O)N3Cc4ccccc4C[C@H]3CN3CCOCC3)n(C)c2C)c2ccc(O)cc2)cc(C#N)n1C.Cl [Compound 4, HCl] , what IC50 is on record?
Outgoing: 10

Incoming: Reported IC50 for `COc1ccccc1-c1nccc(COc2ccccc2C[C@@H](Oc2ncnc3sc(-c4ccc(F)cc4)c(-c4ccc(OCCN5CCN(C)CC5)c(Cl)c4C)c23)C(=O)O)n1` : what is it?
Outgoing: 1

---

Test system: NBL-S
assay info: CellTiterGlo viability, neuroblastoma cell line
Assay type: cell-based
conditions used: single agent, 3 days
pIC50: −log10 of the molar value.
quantity kind: pIC50

Incoming: Form field: pIC50 recorded for `COc1ccccc1-c1nccc(COc2ccccc2C[C@@H](Oc2ncnc3sc(-c4ccc(F)cc4)c(-c4ccc(OCCN5CCN(C)CC5)c(Cl)c4C)c23)C(=O)O)n1` with NBL-S (enter value)
Outgoing: < 5.70

---

Test system: KARPAS-422
assay info: CellTiterGlo viability, DLBCL cell line
Assay type: cell-based
conditions used: single agent, 2 days, read-out: Abs IC50
quantity kind: pIC50
Entry type: numeric. Quantity: pIC50, the -log10 of concentration in molar units.

Incoming: Given the entry COc1ccccc1-c1nccc(COc2ccccc2C[C@@H](Oc2ncnc3sc(-c4ccc(F)cc4)c(-c4ccc(OCCN5CCN(C)CC5)c(Cl)c4C)c23)C(=O)O)n1 [Compound 3] , report its measured pIC50.
Outgoing: 8.67
